The origin of these recorded values is patent US5827871A.

Answer each item with its documented EC50.
# target: 5-HT1-like receptor (Oryctolagus cuniculus, UniProt P49144)
# Sequence (P49144 whole entry): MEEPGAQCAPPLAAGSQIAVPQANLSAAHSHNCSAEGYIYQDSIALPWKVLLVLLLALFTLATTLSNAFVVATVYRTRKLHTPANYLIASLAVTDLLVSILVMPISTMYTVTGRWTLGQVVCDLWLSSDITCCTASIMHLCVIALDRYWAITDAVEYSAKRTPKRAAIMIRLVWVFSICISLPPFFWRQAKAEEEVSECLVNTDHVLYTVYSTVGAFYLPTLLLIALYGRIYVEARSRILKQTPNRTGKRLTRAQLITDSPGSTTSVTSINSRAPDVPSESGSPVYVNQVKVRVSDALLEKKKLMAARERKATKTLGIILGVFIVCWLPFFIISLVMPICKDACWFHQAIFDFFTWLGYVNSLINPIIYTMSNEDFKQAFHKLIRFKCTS
# experimental details: 5-HT1-like receptor screen, rabbit isolated basilar artery contraction
# experimental setup: isometric tension of endothelium-denuded rabbit basilar artery rings, in presence of ascorbate, indomethacin, cocaine, ketanserin and prazosin
Structures can show the parent of a compound that is named as a salt.

Field: example entries. Status: answers known.
CNC1CCc2[nH]c3ccc(C(N)=O)cc3c2C1 (stereo not drawn) [Example 24, hydrochloride] | 0.04 to 15 µM
NC1CCc2[nH]c3ccc(S(N)(=O)=O)cc3c2C1 (stereo not drawn) | 0.04 to 15 µM

Turning to the following molecule.
Enquiry: Item NC(=O)c1ccc2[nH]c3c(c2c1)CC(NCc1ccccc1)CC3 (stereo not drawn) with 5-HT1-like receptor (Oryctolagus cuniculus, UniProt P49144) - EC50?
Return: 0.04 to 15 µM
